assay: Bioavailability in rabbit at 0.6 mg/kg administered intranasally; assay type: ADME, organism-based, Oryctolagus cuniculus; details: in vivo, inhaled or intranasal
test_readout: bioavailability

For the compound `Cc1cc(C[C@@H](NC(=O)N2CCC(N3Cc4ccccc4NC3=O)CC2)C(=O)N2CCC(N3CCCCC3)CC2)cc2cn[nH]c12.Cl` , what bioavailability is on record?
42%

----------
test: Plasma concentration in marmoset at 0.03 g/kg, sc after 105 mins; assay type: ADME, organism-based, Callithrix jacchus; settings: 30 mg/kg
test_readout: concentration at 1.75 h (nM)
One number for each entry, in nM.

For the compound Cc1cc(CC(NC(=O)N2CCC(N3Cc4ccccc4NC3=O)CC2)C(=O)N2CCC(N3CCCCC3)CC2)cc2cn[nH]c12 (racemic) , what concentration at 1.75 h is on record?
11
